# key: entry, value: inhibition at 1 µM
assayedSystem: human hNET (Homo sapiens, UniProt P23975)
Construct: expressed in transfected cells
Sequence (P23975 whole entry): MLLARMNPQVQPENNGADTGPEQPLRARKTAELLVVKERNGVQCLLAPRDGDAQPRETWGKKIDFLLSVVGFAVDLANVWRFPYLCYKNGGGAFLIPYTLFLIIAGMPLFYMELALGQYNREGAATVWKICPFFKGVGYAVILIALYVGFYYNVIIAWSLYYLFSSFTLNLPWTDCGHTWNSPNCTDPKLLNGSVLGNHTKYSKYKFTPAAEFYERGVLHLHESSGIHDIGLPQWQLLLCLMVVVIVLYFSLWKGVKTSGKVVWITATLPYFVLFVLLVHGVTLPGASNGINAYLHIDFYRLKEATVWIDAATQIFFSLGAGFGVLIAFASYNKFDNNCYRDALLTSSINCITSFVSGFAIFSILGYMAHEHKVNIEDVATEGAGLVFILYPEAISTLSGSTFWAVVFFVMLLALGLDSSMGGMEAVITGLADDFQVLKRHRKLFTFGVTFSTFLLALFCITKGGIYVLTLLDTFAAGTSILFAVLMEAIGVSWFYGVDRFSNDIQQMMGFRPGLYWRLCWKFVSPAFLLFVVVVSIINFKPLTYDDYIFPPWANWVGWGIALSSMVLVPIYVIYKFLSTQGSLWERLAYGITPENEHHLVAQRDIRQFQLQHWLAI
assayProcedure: Norepinephrine (NE) uptake assay in MDCK-Net6 cells
Format: cell-based
conditionDetails: 1 μM test compound, [3H]NE uptake
Structures can show the parent of a compound that is named as a salt.
Report field: quantity (unit follows the number).

Solved cases below.
>>> valueobserved("CCCC(O)(CCC)C(CN1CCNCC1)c1cccc(Cl)c1 (stereo not shown) [Example 51, dihydrochloride]")
"44%"
>>> valueobserved("CN1CCN(CC(c2cccc(Cl)c2)C(O)(C2CC2)C2CC2)CC1 (stereo not shown) [Example 86, dihydrochloride]")
"16%"
>>> valueobserved("Clc1cccc(C(CN2CCNCC2)C2CCCCC2)c1 (stereo not shown) [Example 230, dihydrochloride]")
"88.3%"
>>> valueobserved("CN1CCN(CC(c2cccc(Cl)c2)C2(O)CCOCC2)CC1 (stereo not shown) [Example 78, dihydrochloride]")
"22%"
>>> valueobserved("CC1CCC(O)(C(CN2CCN(C)CC2)c2cccc(Cl)c2)CC1 (stereo not shown) [Example 335, dihydrochloride]")
"49.5%"

Then this compound:
[Q] Please report the measured inhibition at 1 µM for OC1CCCCC1C(CN1CCNCC1)c1cccc(Cl)c1 (stereo not shown) [Example 238, dihydrochloride]
[A] 72.9%
